tested on: T98g cells; experiment: Cell viability assay (WST-1), toxic potency and efficacy at T98g cells; type: cell-based; settings: Homo sapiens, 72 h, read-out: Toxic potency at T98g cells (percent efficacy)
Reported endpoint: Emax (%)

| Structure string | Reported endpoint | Unit spec | Recorded result |
| --- | --- | --- | --- |
| Cc1c(C(=O)c2cccc3ccccc23)c2ccccc2n1C | Emax | % | 71 |
| Cc1ccc(C(=O)c2c(C)n(CCN3CCOCC3)c3cc(Cl)cc(Cl)c23)c2ccccc12 | Emax | % | 56 |
| CCn1c(C)c(C(=O)c2cccc3ccccc23)c2ccccc21 | Emax | % | 84 |
| CC(=O)c1c(C)n(CCOc2cccc3ccccc23)c2ccccc12 | Emax | % | 62 |
| Cc1ccc(C(=O)c2c3n(c4ccccc24)CCCC3)c2ccccc12 | Emax | % | 64 |
| CCCn1c(C)c(C(=O)c2cccc3ccccc23)c2ccccc21 | Emax | % | 58 |
| CC(=O)c1c(C)n(CCOc2ccccc2)c2ccccc12 | Emax | % | 81 |
| Cc1ccc(C(=O)c2c(C)n(CCN3CCOCC3)c3ccccc23)c2ccccc12 | Emax | % | 48 |
| COCCn1c(C)c(C(=O)N2CCC3(CC2)NC(=O)N(C)C3=O)c2ccccc21 | Emax | % | 55 |
| COc1ccc(C(=O)c2c(C)n(CCN3CCOCC3)c3ccccc23)cc1 | Emax | % | 88 |
